Where do the numbers come from? From PubChem BioAssay (NCI).

tested on: NCI-H460 lung; test: NCI-60 one-dose screen, 48 h (100 = growth as untreated, 0 = no growth, -100 = all killed); conditions: 10 µM unless noted
About 83,000 compounds went through this panel and 20% of them were active in at least one assay; those are over-represented in the sample as a whole.

# TEST SMILES, UOM, growth
rows = [
    ("OCCNC(=S)Nc1ccc(-c2nc(N3C[C@H]4CC[C@@H](C3)O4)c3cccn3n2)cc1", "%", 11),
    ("CC(C)(O)CC(=O)NCCn1ccc2ncnc(Nc3ccc(Oc4cccc(C(F)(F)F)c4)c(Cl)c3)c21", "%", 11.1),
    ("NC(=O)c1n[nH]n2c1nc(=O)c1c3c(sc12)CCCC3", "%", 109),
    ("O=C(/C=C/c1ccc2c(c1)OCO2)c1c(O)c2ccccc2oc1=O", "%", 103),
    ("CN(C[C@@H]1COCCO1)S(=O)(=O)Nc1ccc2ccc3ncc(-c4cnn(C)c4)cc3c(=O)c2c1", "%", 35),
]

* * *

tested on: SK-OV-3 ovarian; assay: NCI-60 one-dose screen, 48 h (100 = growth as untreated, 0 = no growth, -100 = all killed); conditions: 10 µM unless noted
The panel holds about 83,000 compounds, 20% with a hit somewhere; the sample as a whole holds those more often. Active and inactive are the calls of the source. The calls were made as follows: active = growth percent below 10; inactive = the rest.

# MOLECULE, growth
records = [
    ("C[C@@H](Oc1cc(C(=O)Nc2ccc(C(=O)N3CCN(C)CC3)cc2)nnc1N)c1c(Cl)ccc(F)c1Cl", "66.9% (inactive)"),
    ("COc1ccc(Br)cc1NC(=O)Nc1cccc2c1ccn2Cc1ccnc(N)c1", "26.7% (inactive)"),
    ("Nc1nc(N)c2nc(-c3cccc(O)c3)c(-c3cccc(O)c3)nc2n1", "52.8% (inactive)"),
    ("COC(=O)N[C@@H](C)CNc1nccc(-c2cn(C(C)C)nc2-c2cc(Cl)cc(NS(C)(=O)=O)c2F)n1", "22.8% (inactive)"),
    ("O=C(Nc1ccc(C2=NCCCN2)cc1)c1ccc(C(=O)Nc2ccc(C3=NCCCN3)cc2)nc1", "106% (inactive)"),
    ("Cc1cccc(C)c1N1C(c2ccccc2)=NNC12C=CC(=O)c1c(O)cccc12 (stereo not drawn)", "86% (inactive)"),
    ("CCN(CCN(C)C)C(=O)CNCc1cc(C(N)=O)ccn1", "96.4% (inactive)"),
    ("CC1(/C=N/NC(N)=S)NC(=O)NC1=O (stereo not drawn)", "86.9% (inactive)"),
    ("Cn1cnc(-c2cc3nccc(Oc4ccc(NC(=S)NC(=O)Cc5ccccc5)cc4F)c3s2)c1", "82.6% (inactive)"),
    ("CCNC(=O)C#Cc1ccc2c(C(=Nc3ccc(CN(C)C)cc3)c3ccccc3)c(O)[nH]c2c1", "10.8% (inactive)"),
    ("C#Cc1cccc(Nc2ncnc3cc4c(cc23)OCCOCCOCCO4)c1", "-17% (active)"),
    ("Cc1ccc(Nc2nccc(N(C)c3ccc4c(C)n(C)nc4c3)n2)cc1S(N)(=O)=O", "-1.9% (active)"),
    ("Clc1nc(Cl)c2ncn(CC#CCn3cnc4c(Cl)nc(Cl)nc43)c2n1", "87.5% (inactive)"),
    ("c1cc(OCCN2CCCCC2)cc(-c2n[nH]c3ccc(-c4ncn[nH]4)cc23)c1", "31.8% (inactive)"),
    ("COC(=O)C1CCc2sc3ncnc(Nc4cn[nH]c4C(=O)Nc4ccc(CN5CCN(C)CC5)cc4)c3c21 (stereo not drawn)", "6.43% (active)"),
    ("O=C(Cn1cncn1)Nc1ccc(-c2nc3ccccc3s2)cc1", "99.9% (inactive)"),
    ("CNC(=O)c1cnc(C)nc1-c1cc(C(C)(C)C)c(O)c(C(C)(C)C)c1", "97.5% (inactive)"),
    ("COc1cc(N2CCC(N(C)C)CC2)ccc1Nc1ncc(Cl)c(Nc2ccccc2P(C)(C)=O)n1", "-77.7% (active)"),
    ("O=CC(OC(=O)c1ccccc1)C(OC(=O)c1ccccc1)C(COC(c1ccccc1)(c1ccccc1)c1ccccc1)OC(=O)c1ccccc1 (stereo not drawn)", "98.8% (inactive)"),
    ("COc1cccc(NC(=O)Nc2ccc(Nc3ncnc4sc5c(c34)CCN(C(=O)CCl)C5)cc2)c1", "93.8% (inactive)"),
    ("CCOC(=O)Sc1ncnc2nc[nH]c12", "23.9% (inactive)"),
    ("COc1ccc2c(OCc3nnc4ccc(-c5ccccc5)nn34)ccnc2c1", "73.3% [2.5 µM] (inactive)"),
    ("CNC(=O)c1cc(Oc2ccc(NC(=O)Nc3ccc(Cl)c(C(F)(F)F)c3)c(F)c2)ccn1", "-16.7% (active)"),
    ("OCCNC(=S)Nc1ccc(-c2nc(N3C[C@H]4CC[C@@H](C3)O4)c3cccn3n2)cc1", "-33.7% (active)"),
    ("C=CC(=O)N1CCC[C@@H](n2nc(-c3ccc(Oc4ccccc4)cc3)c3c(N)ncnc32)C1", "-2.8% (active)"),
    ("CN1C/C=C\\CCOc2cccc(c2)-c2ccnc(n2)Nc2cccc(c2)C1", "-17.2% (active)"),
    ("CNC(=O)c1cc(Oc2cccc3nc(Nc4ccc(Oc5ccccc5)cc4)ccc23)ccn1", "87.1% (inactive)"),
    ("CCCCCCCC(=O)SCC/C=C/[C@@H]1CC(=O)NCc2cccc(n2)C2=N[C@@](C)(CS2)C(=O)N[C@@H](C(C)C)C(=O)N1", "10.3% (inactive)"),
    ("COc1cc2c(cc1OCCCCCN1CCN(c3ncnc4ccccc34)CC1)N=CC1CCCN1C2=O (stereo not drawn)", "19.5% (inactive)"),
    ("CCCCn1c(C)nc2ccc(Nc3nc(N4CCN(C)CC4)nc4nc[nH]c34)cc21", "104% (inactive)"),
    ("CC#CC(=O)N1CCC[C@H]1c1nc(-c2ccc(C(=O)Nc3ccccn3)cc2)c2c(N)nccn12", "-0.746% (active)"),
    ("CC(C)(C)OC(=O)N1CCC(O)[C@@H](O[Si](c2ccccc2)(c2ccccc2)C(C)(C)C)[C@H]1/C=C/c1ccccc1 (stereo partly drawn)", "56.3% (inactive)"),
    ("COc1cc2c3c(c1)nc(C)n3CCC2", "90.8% (inactive)"),
    ("C[C@@]1(C(=O)Nc2ccc(F)nc2)CCCN1c1nc(Nc2cc(C3CC3)[nH]n2)c2cccn2n1", "18.7% (inactive)"),
    ("COc1ccc(C2CC(=O)c3c(O)c(OC)c(OC)c(OC)c3O2)cc1O (stereo not drawn)", "40% (inactive)"),
    ("Cc1sc2c(c1C)c(=O)nc1c(-c3nc4ccccc4s3)n[nH]n12", "91.4% (inactive)"),
    ("COc1ccc(-n2c(=O)c3ccccc3n(Cc3ccc(C(=O)NO)cc3)c2=O)cc1", "28.3% (inactive)"),
    ("CCCNC(=O)c1cn2ncnc(Nc3cc(C(=O)NC4CC4)ccc3C)c2c1C", "70.5% (inactive)"),
]
